These data points were gathered from PubChem BioAssay (NCI).

- System: HT29 colon
- experimental.details: NCI-60 one-dose screen, 48 h (100 = growth as untreated, 0 = no growth, -100 = all killed)
- conditions.used: 10 µM unless noted
This is part of a sample that, as a whole, favours compounds with a hit. Of some 83,000 tested, about 20% had one in any assay.
measured.attribute: growth (%)

molecule: CCCCCC1CCCCN1C(=O)OCCCC (centres undefined)
assay.value: 103

molecule: Cc1cnc(N)nc1OCC(C)(C)CNC(=O)c1cccc(-c2ccc(S(=O)(=O)Nc3ccc4c(c3)N(C(=O)C3CC3)CCC4)cc2)c1
assay.value: 42.1

molecule: CC(C)C1=NOC(=O)C1=Cc1cn(-c2ccccc2)nc1-c1cccc([N+](=O)[O-])c1
assay.value: 70.5

molecule: CC1=C/C(=C(\c2cc(C)c(O)c(C(=O)O)c2)c2c(Cl)cccc2Cl)C=C(C(=O)O)C1=O
assay.value: 97.8

molecule: COc1ccc(OC)c([N+](=O)[O-])c1C(=O)CNC(C)=O
assay.value: 109

molecule: Cc1ccc(-c2cc(-c3ccc(C)cc3)nc(NCCNc3ccnc4cc(Cl)ccc34)n2)cc1
assay.value: -36

molecule: COc1ccc(-c2cc(-c3ccc(Cl)cc3)nc(NCCCCNc3ccnc4cc(Cl)ccc34)n2)cc1
assay.value: 4.81

molecule: CCOC(=O)c1c[nH]n2c(=S)ncnc12
assay.value: 100

molecule: COC(=O)[C@@H](NC(=O)NC(=O)NC(=O)CI)C(C)C
assay.value: 60.2

molecule: CC1Cc2c(Cl)ncnc2N(C)c2ccc(O)cc21 (centres undefined)
assay.value: 74.7

molecule: O=C1/C(=C\c2cn(CC(O)CN3CCCCC3)c3ccccc23)c2ccccc2N1c1c(Cl)cccc1Cl (centres undefined)
assay.value: -85

molecule: Cn1cc(-c2nnc(-c3ccccc3)s2)c2cc(Br)cnc21
assay.value: 95

molecule: Cc1nn(-c2ccccc2)c(N2CCOCC2)c1-c1nc2ccc([N+](=O)[O-])cc2[nH]1
assay.value: 113

molecule: CN(C)c1ccc(-c2ccc(-c3ccc(C(=N)N)cc3)s2)cc1
assay.value: -65.6

###

- Test system: MCF7 breast
- experimental.details: NCI-60 one-dose screen, 48 h
- conditions.used: 10 µM unless noted
The panel holds about 83,000 compounds, 20% with a hit somewhere; the sample as a whole holds those more often. The source made the active and inactive calls. How the source made its calls: active means growth percent below 10; inactive means the rest.
Outcomes: active, inactive

compound: C=C(C)[C@@H]1CC[C@]2(C(=O)NCCCN)CC[C@]3(C)[C@H](CC[C@@H]4[C@@]5(C)CC[C@H](O)C(C)(C)[C@@H]5CC[C@]43C)[C@@H]12
target.of.assay: MCF7 breast
assigned.label: active
//
compound: NC(=O)c1c(NC(=O)COC(=O)Cc2ccccc2F)sc2c1CCC2
target.of.assay: MCF7 breast
assigned.label: inactive
//
compound: CCCCCn1c(C)cc(/C=C\c2ccc3cc(C)ccc3[n+]2C)c1C
target.of.assay: MCF7 breast
assigned.label: active
//
compound: CC(C)OC(=O)Nc1cc(F)ccc1F
target.of.assay: MCF7 breast
assigned.label: inactive
//
compound: CC(C)[N+](C)(C)CC(O)COc1cccc2ccccc12 (stereo not given)
target.of.assay: MCF7 breast
assigned.label: inactive
//
compound: N#Cc1c(Cl)nc(SCC2CO2)nc1-c1ccccc1 (stereo not given)
target.of.assay: MCF7 breast
assigned.label: inactive
//
compound: CCN(CC)CCCCCCNc1cccc2cc(Br)cnc12
target.of.assay: MCF7 breast
assigned.label: inactive
//
compound: CCCCCC1CCCCN1C(=O)OCCCC (stereo not given)
target.of.assay: MCF7 breast
assigned.label: inactive
//
compound: COc1ccc2c(c1)C(C)Cc1c(ncnc1-n1cnc3ccccc31)N2C (stereo not given)
target.of.assay: MCF7 breast
assigned.label: inactive
//
compound: CN(C)CCOc1ccc(/C(=C(/CCCl)c2ccccc2)c2ccccc2)cc1
target.of.assay: MCF7 breast
assigned.label: active
//
compound: CSc1nc(=S)c2nc(SC)n(-c3ccccc3)c2[nH]1
target.of.assay: MCF7 breast
assigned.label: inactive
//
compound: CCOC(=O)c1nn(C2CCCCO2)c2ccc(NC(=O)CSc3nc4ccccc4c(=O)[nH]3)cc12 (stereo not given)
target.of.assay: MCF7 breast
assigned.label: inactive
//
compound: CCn1cc(-c2cc(-c3ccc(Cl)cc3)nc(N)n2)c(-c2ccc(Br)cc2)n1
target.of.assay: MCF7 breast
assigned.label: inactive
//
compound: CC1=C/C(=C(\c2cc(C)c(O)c(C(=O)O)c2)c2c(Cl)cccc2Cl)C=C(C(=O)O)C1=O
target.of.assay: MCF7 breast
assigned.label: inactive
//
compound: COc1cc2c(c(OC)c1)C1c3cc(OC)ccc3NC(=O)N1CC2 (stereo not given)
target.of.assay: MCF7 breast
assigned.label: inactive
//
compound: CCOc1ccc(/C=C(\C#N)c2cc3ccccc3[nH]2)cc1
target.of.assay: MCF7 breast
assigned.label: inactive
//
compound: CCOC(=O)c1cc(C(=O)c2ccc(OC)c(OC)c2)n2ccc(-c3ccccn3)cc12
target.of.assay: MCF7 breast
assigned.label: inactive
//
compound: O=c1cc(-c2ccccc2)oc2c(O)c(O)ccc12
target.of.assay: MCF7 breast
assigned.label: inactive
//
compound: CCCCCCCCCCCCCCCCCCNC(=S)N/N=C/c1ccc(OC)c(OC)c1
target.of.assay: MCF7 breast
assigned.label: inactive
//
compound: O=C1CC(C(F)(F)F)Cc2nc3ccc(Br)cc3cc21 (stereo not given)
target.of.assay: MCF7 breast
assigned.label: inactive
//
compound: C=C(C)[C@@H]1CC[C@]2(COCCCN)CC[C@]3(C)[C@H](CC[C@@H]4[C@@](C)(CCCNCCCN)[C@H](C(=C)C)CC[C@]43C)[C@@H]12
target.of.assay: MCF7 breast
assigned.label: active
//
compound: N#C/C(=C(/O)CCCO)c1nc2ccccc2c(=O)[nH]1
target.of.assay: MCF7 breast
assigned.label: inactive
//
compound: Cc1ccc(-c2cc(-c3ccc(C)cc3)nc(N3CCN(CCNc4ccnc5cc(Cl)ccc45)CC3)n2)cc1
target.of.assay: MCF7 breast
assigned.label: inactive
//
compound: Cc1cc(C)nc(SCC(=O)Nc2cccc(N=Cc3ccccc3O)c2)n1
target.of.assay: MCF7 breast
assigned.label: inactive
//
compound: CC(C)c1ccc(C(=O)Nc2nc3ccc(O)cc3s2)cc1
target.of.assay: MCF7 breast
assigned.label: active
//
compound: CC(C)(C)OC(=O)N1C=C/C(=C\Cn2cc(-c3ccccc3)nn2)CC1
target.of.assay: MCF7 breast
assigned.label: inactive
//
compound: CC1=CC[C@@H]2C(C)(C)[C@@H](O)CC[C@@]2(C)[C@@H]1COc1ccc2ccc(=O)oc2c1
target.of.assay: MCF7 breast
assigned.label: inactive
//
compound: COc1ccc(-c2cc(-c3ccccc3)nc(SCCCCCC(=O)NO)n2)cc1
target.of.assay: MCF7 breast
assigned.label: inactive
//
compound: C=C(C)[C@@H]1CC[C@]2(C(=O)NCCCCCCN(CCCN)CCCN)CC[C@]3(C)[C@H](CC[C@@H]4[C@@]5(C)CC[C@H](OCCCN)C(C)(C)[C@@H]5CC[C@]43C)[C@@H]12
target.of.assay: MCF7 breast
assigned.label: inactive
//
compound: Cc1nc(Cl)c2c(n1)N(C)c1ccc(Cl)cc1C(C)C2 (stereo not given)
target.of.assay: MCF7 breast
assigned.label: inactive
//
compound: CC1Cc2c(ncnc2-n2cnc3ccccc32)N(C)c2ccccc21 (stereo not given)
target.of.assay: MCF7 breast
assigned.label: inactive
//
compound: Nc1nc(Nc2ccccc2)c2ncn(Cc3ccc4c(c3)OCO4)c2n1
target.of.assay: MCF7 breast
assigned.label: inactive
//
compound: O=C1CN(Cc2ccc(C(=O)NO)cc2)C(=O)[C@@H](Cc2ccccc2)N1
target.of.assay: MCF7 breast
assigned.label: inactive
//
compound: CC[C@@](C)(NC(=O)[C@H](C)NC(=O)CCNC(=O)C(C)(C)NC(=O)[C@H](C)NC(=O)[C@@H]1CCCN1C(=O)[C@@](C)(CC)NC(=O)[C@H](Cc1ccccc1)NC(=O)C1CCCN1C(=O)C(C)(C)NC(=O)C1CCCN1C(=O)C(C)(C)NC(C)=O)C(=O)NCCC(=O)N[C@@H](CC(C)C)C(=O)NC(C)(C)C(=O)NCCC(=O)N[C@@H](CC(C)C)C(=O)NC(C)(C)C(=O)NC(C)(C)C(=O)N[C@@H](CC(C)C)C(=O)NCCC(=O)NCO (stereo not given in full)
target.of.assay: MCF7 breast
assigned.label: active
//
compound: C[N+](C)(C)c1ncnc2[n-]cnc12
target.of.assay: MCF7 breast
assigned.label: inactive
//
compound: CSc1nc2c(c(=O)n1C)C1(C(=O)N(Cc3ccccc3)c3ccccc31)c1c(nc(SC)n(C)c1=O)N2
target.of.assay: MCF7 breast
assigned.label: inactive
//
compound: COc1cccc(-c2[nH]c(=S)ncc2C(=O)c2ccccc2)c1
target.of.assay: MCF7 breast
assigned.label: inactive
//
compound: CCCSc1nc(N)nc2nc[nH]c12
target.of.assay: MCF7 breast
assigned.label: inactive
//
compound: C=C(C)[C@@H]1CC[C@]2(C)[C@H](CC[C@@H]3[C@@H]([C@@](C)(O)CCC=C(C)C)CC[C@]32C)[C@@]1(C)CCC(=O)O
target.of.assay: MCF7 breast
assigned.label: active
//
compound: CC(C)CCNCC(C)(C)O
target.of.assay: MCF7 breast
assigned.label: inactive
